target: Proton Pump (H^+,K^+-ATPase) (Sus scrofa, UniProt P19156); construct: gastric vesicles were isolated from porcine stomachs; assay: Inhibitory activity on proton pump (H+,K+-ATPase) activity, porcine gastric vesicles, malachite green readout; details: porcine gastric vesicles, pH 6.5, 8 mM KCl, 0.2 mM ATP
Sequence (P19156 2-1034 limits assumed): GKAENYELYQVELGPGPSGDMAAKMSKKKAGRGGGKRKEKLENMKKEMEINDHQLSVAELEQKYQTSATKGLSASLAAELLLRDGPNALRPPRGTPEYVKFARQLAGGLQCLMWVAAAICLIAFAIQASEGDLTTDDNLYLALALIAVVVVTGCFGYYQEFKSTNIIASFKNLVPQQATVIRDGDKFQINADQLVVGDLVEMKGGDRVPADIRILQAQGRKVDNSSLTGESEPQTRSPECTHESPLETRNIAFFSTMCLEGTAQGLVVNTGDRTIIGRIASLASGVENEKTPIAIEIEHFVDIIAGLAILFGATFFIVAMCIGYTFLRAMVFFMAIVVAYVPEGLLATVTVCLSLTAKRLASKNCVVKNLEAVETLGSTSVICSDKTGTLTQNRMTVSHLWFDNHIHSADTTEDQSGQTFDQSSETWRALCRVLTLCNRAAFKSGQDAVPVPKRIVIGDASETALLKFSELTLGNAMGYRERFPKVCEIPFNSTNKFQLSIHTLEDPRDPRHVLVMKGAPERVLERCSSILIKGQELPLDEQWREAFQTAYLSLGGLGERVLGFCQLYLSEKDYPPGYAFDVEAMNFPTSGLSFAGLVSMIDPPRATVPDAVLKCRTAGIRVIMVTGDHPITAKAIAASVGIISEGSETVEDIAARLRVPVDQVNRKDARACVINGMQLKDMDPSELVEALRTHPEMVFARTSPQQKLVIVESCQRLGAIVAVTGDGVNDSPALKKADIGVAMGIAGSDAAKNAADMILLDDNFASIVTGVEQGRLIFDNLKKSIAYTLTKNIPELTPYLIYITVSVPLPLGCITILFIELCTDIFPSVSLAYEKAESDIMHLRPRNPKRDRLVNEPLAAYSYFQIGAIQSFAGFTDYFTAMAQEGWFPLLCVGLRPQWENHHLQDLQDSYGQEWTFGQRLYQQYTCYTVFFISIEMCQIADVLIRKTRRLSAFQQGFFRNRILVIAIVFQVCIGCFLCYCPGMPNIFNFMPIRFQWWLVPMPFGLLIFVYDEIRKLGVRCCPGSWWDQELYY
Sequence (P18434 whole entry partner): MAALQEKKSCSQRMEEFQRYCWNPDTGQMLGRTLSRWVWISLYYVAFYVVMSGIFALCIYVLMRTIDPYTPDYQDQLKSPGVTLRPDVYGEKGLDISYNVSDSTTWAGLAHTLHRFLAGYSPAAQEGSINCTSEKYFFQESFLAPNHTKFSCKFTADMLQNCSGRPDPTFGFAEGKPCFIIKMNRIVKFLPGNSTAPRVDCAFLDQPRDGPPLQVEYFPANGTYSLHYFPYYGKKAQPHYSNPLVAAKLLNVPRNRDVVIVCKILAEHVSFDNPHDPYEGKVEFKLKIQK
pIC50: −log10 of the molar value. Structures can show the parent of a compound that is named as a salt.
VALUE_KIND: pIC50

Record excerpt, results attached:
COMPOUND: Cc1cccc(C)c1CNc1cc(NC(=O)CN)cn2c(C)c(C)nc12.Cl [Example 10, hydrochloride]
RESULT: > 7.30

COMPOUND: CCCNC(=O)Nc1cc(NCc2c(C)cccc2C)c2nc(C)c(C)n2c1 [Example 54]
RESULT: 6.30 to 7.00

COMPOUND: Cc1cccc(C)c1CNc1cc(NC(=O)[C@@H]2CCCCN2)cn2c(C)c(C)nc12 [Example 106, hydrochloride]
RESULT: 6.30 to 7.00

// Cc1cccc(C)c1CNc1cc(NC(=O)[C@H]2CCCN(C(=O)CO)C2)cn2c(C)c(C)nc12 [Example 120] : pIC50 value = 6.30 to 7.00

// Cc1cccc(C)c1CNc1cc(NC(=O)[C@@H](C)N)cn2c(C)c(C)nc12 [Example 20, hydrochloride] : pIC50 value = 7.00 to 7.30

// Cc1cccc(C)c1CNc1cc(NC(=O)NCC(=O)O)cn2c(C)c(C)nc12 [Example 70, hydrochloride] : pIC50 value = 6.30 to 7.00

---

target: Proton Pump (H^+,K^+-ATPase) (Sus scrofa, UniProt P19156); construct: gastric vesicles were isolated from porcine stomachs; assay: Inhibitory activity on proton pump (H+,K+-ATPase) activity, porcine gastric vesicles, malachite green readout; details: porcine gastric vesicles, pH 6.5, 8 mM KCl, 0.2 mM ATP
Structures can show the parent of a compound that is named as a salt.
Attribute: IC50

COMPOUND: Cc1cc(F)cc(C)c1CNc1cc(N2C(=O)CN(C)C2=O)cn2c(C)c(C)nc12 [Example 116]
IC50: 0.05 to 0.1 µM
//
COMPOUND: Cc1cccc(C)c1CNc1cc(NC(=O)NCCC(=O)O)cn2c(C)c(C)nc12 [Example 71, citrate]
IC50: 0.1 to 0.5 µM
//
COMPOUND: Cc1cccc(C)c1CNc1cc(NC(=O)NCC2CCOC2)cn2c(C)c(C)nc12 (stereo not shown) [Example 74, hydrochloride]
IC50: 0.05 to 0.1 µM
//
COMPOUND: CCN(C)C(=O)Nc1cc(NCc2c(C)cccc2C)c2nc(C)c(C)n2c1 [Example 32, hydrochloride]
IC50: 0.05 to 0.1 µM
//
COMPOUND: CC(=O)OCC(=O)Nc1cc(NCc2c(C)cccc2C)c2nc(C)c(C)n2c1 [Example 25]
IC50: 0.1 to 0.5 µM

// Cc1cccc(C)c1CNc1cc(NC(=O)CNC(=O)C(C)(F)F)cn2c(C)c(C)nc12 [Example 57] : IC50 value = 0.1 to 0.5 µM

// CC(=O)OC1(C(=O)Nc2cc(NCc3c(C)cc(F)cc3C)c3nc(C)c(C)n3c2)CC1 [Example 113] : IC50 value = 0.1 to 0.5 µM

// Cc1cc(F)cc(C)c1CNc1cc(N)cn2c(C)c(C)nc12 [Preliminary Example 2, hydrochloride] : IC50 value = 0.05 to 0.1 µM

// Cc1cccc(C)c1CNc1cc(NC(=O)N2CCCC(c3ccccc3)C2)cn2c(C)c(C)nc12 (stereo not shown) [Example 83] : IC50 value = 0.1 to 0.5 µM

// Cc1cccc(C)c1CNc1cc(NC(=O)[C@H]2CNCCN2)cn2c(C)c(C)nc12 [Example 85, hydrochloride] : IC50 value = 0.1 to 0.5 µM

// Cc1cccc(C)c1CNc1cc(NC(=O)C23CC(C2)C3)cn2c(C)c(C)nc12 [Example 12] : IC50 value = 0.1 to 0.5 µM

// Cc1cccc(C)c1CNc1cc(NC(=O)C(C)(C)N)cn2c(C)c(C)nc12 [Example 27, hydrochloride] : IC50 value = 0.05 to 0.1 µM
